Target: human muscarinic receptor subtype M2 (Homo sapiens, UniProt P08172)
Sequence (P08172 whole entry): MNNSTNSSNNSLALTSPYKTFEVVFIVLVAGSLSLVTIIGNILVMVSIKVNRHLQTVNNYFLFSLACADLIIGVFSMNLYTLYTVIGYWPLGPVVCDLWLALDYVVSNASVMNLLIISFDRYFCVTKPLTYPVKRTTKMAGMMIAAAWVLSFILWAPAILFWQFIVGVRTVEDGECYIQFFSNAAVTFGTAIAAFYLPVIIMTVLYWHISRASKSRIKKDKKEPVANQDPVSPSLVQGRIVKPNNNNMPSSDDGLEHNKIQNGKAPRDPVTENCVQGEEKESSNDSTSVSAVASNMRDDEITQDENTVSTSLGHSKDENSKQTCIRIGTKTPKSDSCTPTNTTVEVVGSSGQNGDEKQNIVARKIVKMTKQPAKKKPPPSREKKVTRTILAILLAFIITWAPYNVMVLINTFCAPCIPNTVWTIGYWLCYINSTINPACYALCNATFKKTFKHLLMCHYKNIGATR
Test: Muscarinic receptor binding, displacement of [3H]-NMS, membranes from transfected CHO cells
Conditions: [3H]-NMS displacement, CHO cell membranes; tested two to four times, SEM <=10%; read-out: Muscarinic Binding Activity M2 (IC50)
Method: The compounds were evaluated in standard assays used to measure muscarinic receptor binding, and they were compared with other benzoxazines described in Bioorganic & Medicinal Chemistry Letters 8, 1998:1991-1996, which is incorporated herein by reference. Specifically, the compounds were evaluated for their binding affinity toward five human muscarinic receptor subtypes (M1-M5) by the method of Dorje et al., J. Pharm. Exp. Ther. 1991;256:727-733, which is incorporated herein by reference. […]
pIC50: −log10 of the molar value.
parameter measured: pIC50

{"columns": ["molecule", "parameter measured", "value"],
 "data": [
  ["CCCCc1[nH]c2ccc3c(c2c1C(=O)OCC)CN1CCc2cc(OC)ccc2C1O3 (stereo not shown)", "pIC50", 6.26]
]}

P = CCCCCCc1[nH]c2ccc3c(c2c1C(=O)OCC)CN1CCc2cc(OC)ccc2C1O3 (stereo not shown)
Q = CCCc1[nH]c2ccc3c(c2c1C(=O)OCC)CN1CCc2cc(OC)ccc2C1O3 (stereo not shown)
R = CCCCc1[nH]c2ccc3c(c2c1C(=O)OCC)CN1CCc2cc(SC)ccc2C1O3 (stereo not shown)
Request: Arrange the 3 entries by pIC50 so the values rise. Please write the labels in the order that was asked for.
Response: R, Q, P
(R: 5.40, Q: 5.70, P: 6.10)

---

molecular target: human muscarinic receptor subtype M1 (Homo sapiens); experiment: Muscarinic receptor binding, displacement of [3H]-NMS, membranes from transfected CHO cells; conditions: [3H]-NMS displacement, CHO cell membranes; tested two to four times, SEM <=10%; read-out: Muscarinic Binding Activity M1 (IC50)
Sequence (P11229 whole entry): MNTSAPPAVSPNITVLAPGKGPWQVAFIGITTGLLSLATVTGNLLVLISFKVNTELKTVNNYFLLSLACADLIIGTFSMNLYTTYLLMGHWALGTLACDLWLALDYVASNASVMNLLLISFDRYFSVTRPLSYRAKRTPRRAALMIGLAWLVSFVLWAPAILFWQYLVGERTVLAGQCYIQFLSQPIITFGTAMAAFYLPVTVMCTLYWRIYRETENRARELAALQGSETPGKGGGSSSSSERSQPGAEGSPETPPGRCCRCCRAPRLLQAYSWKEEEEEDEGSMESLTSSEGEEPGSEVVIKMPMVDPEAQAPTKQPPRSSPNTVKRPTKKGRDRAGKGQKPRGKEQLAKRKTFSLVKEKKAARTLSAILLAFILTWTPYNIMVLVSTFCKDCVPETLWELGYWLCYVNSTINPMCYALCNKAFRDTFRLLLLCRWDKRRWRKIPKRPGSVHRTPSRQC
parameter measured: IC50 (nM)

{"columns": ["molecule", "parameter measured", "value"],
 "data": [
  ["CCOC(=O)c1c(C)n(C)c2ccc3c(c12)CN1CCc2cc(OC)ccc2C1O3 (stereo not shown) [Prior Art Compound Et/Me/9-OMe/Me, reference compound]", "IC50", 500],
  ["CCCCc1[nH]c2ccc3c(c2c1C(=O)OCC)CN1CCc2cc(SC)ccc2C1O3 (stereo not shown)", "IC50", 2000]
]}

1 = CCCCCCc1[nH]c2ccc3c(c2c1C(=O)OCC)CN1CCc2cc(OC)ccc2C1O3 (stereo not shown)
2 = CCCc1[nH]c2ccc3c(c2c1C(=O)OCC)CN1CCc2cc(SC)ccc2C1O3 (stereo not shown)
3 = CCCc1[nH]c2ccc3c(c2c1C(=O)OCC)CN1CCc2cc(OC)ccc2C1O3 (stereo not shown)
4 = CCCCCc1[nH]c2ccc3c(c2c1C(=O)OCC)CN1CCc2cc(OC)ccc2C1O3 (stereo not shown)
5 = CCCc1c(C(=O)OCC)c2c3c(ccc2n1C)OC1c2ccc(SC)cc2CCN1C3 (stereo not shown)
Request: Task field, ranking: reported IC50, descending order. Please write the labels in the order that was asked for.
Response: 4, 5, 3, 1, 2
(4: 50000 nM, 5: 7500 nM, 3: 4660 nM, 1: 2000 nM, 2: 1400 nM)

---

target: human muscarinic receptor subtype M3 (Homo sapiens, UniProt P20309); test: Muscarinic receptor binding, displacement of [3H]-NMS, membranes from transfected CHO cells; details: [3H]-NMS displacement, CHO cell membranes; tested two to four times, SEM <=10%; read-out: Muscarinic Binding Activity M3 (IC50)
Sequence (P20309 whole entry): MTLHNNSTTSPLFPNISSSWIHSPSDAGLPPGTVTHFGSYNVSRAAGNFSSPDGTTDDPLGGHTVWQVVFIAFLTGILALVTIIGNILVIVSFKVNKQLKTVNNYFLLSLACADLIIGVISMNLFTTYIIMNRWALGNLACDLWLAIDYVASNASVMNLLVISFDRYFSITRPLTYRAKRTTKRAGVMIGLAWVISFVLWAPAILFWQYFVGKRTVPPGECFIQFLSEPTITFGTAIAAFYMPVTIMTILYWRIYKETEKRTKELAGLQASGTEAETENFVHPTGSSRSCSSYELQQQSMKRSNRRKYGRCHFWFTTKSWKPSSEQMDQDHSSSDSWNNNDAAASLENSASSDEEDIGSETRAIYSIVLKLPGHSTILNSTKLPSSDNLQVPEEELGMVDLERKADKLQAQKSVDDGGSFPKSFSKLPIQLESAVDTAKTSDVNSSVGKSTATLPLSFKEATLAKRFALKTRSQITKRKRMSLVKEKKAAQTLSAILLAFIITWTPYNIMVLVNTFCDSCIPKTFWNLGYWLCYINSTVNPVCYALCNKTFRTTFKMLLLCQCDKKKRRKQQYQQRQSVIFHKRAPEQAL
pIC50: −log10 of the molar value.
parameter measured: pIC50

Some entries whose results are on file:
{"columns": ["compound", "value"],
 "data": [
  ["CCCCc1[nH]c2ccc3c(c2c1C(=O)OCC)CN1CCc2cc(OC)ccc2C1O3 (stereo not shown)", 6.72],
  ["CCOC(=O)c1c(CC)[nH]c2ccc3c(c12)CN1CCc2cc(OC)ccc2C1O3 (stereo not shown) [Prior Art Compound Et/Et/9-OMe/H, reference compound]", 6.70],
  ["CCCCCc1[nH]c2ccc3c(c2c1C(=O)OCC)CN1CCc2cc(OC)ccc2C1O3 (stereo not shown)", 6.70],
  ["CCCc1[nH]c2ccc3c(c2c1C(=O)OCC)CN1CCc2cc(OC)ccc2C1O3 (stereo not shown)", 6.89]
]}

I = CCOC(=O)c1c(C)n(C)c2ccc3c(c12)CN1CCc2cc(OC)ccc2C1O3 (stereo not shown) [Prior Art Compound Et/Me/9-OMe/Me, reference compound]
II = CCCc1c(C(=O)OCC)c2c3c(ccc2n1C)OC1c2ccc(OC)cc2CCN1C3 (stereo not shown)
Request: // compare measured pIC50 between I and II ; output the lower one Provide the label of your selected option as the answer.
Response: I
(I: 6.40, II: 6.89)

---

Recorded IC50 for the following compounds
target: UniProt:P20309; assay: Muscarinic receptor binding, displacement of [3H]-NMS, membranes from transfected CHO cells
Answer with a number only, understood to be in nM.

{"columns": ["compound", "IC50 / nM"],
 "data": [
  ["CCOC(=O)c1c(C)n(CC)c2ccc3c(c12)CN1CCc2cc(OC)ccc2C1O3 (centres unmarked) [Prior Art Compound Et/Me/9-OMe/Et, reference compound]", 500]
]}

Now turn to the next compound.
Request: Check UniProt:P20309 data and give IC50 for CCOC(=O)c1c(CC)n(CC)c2ccc3c(c12)CN1CCc2cc(OC)ccc2C1O3 (centres unmarked) [Prior Art Compound Et/Et/9-OMe/Et, reference compound] .
Response: 50
